Reference source: the supplement of paper PMC10567573

Experiment: protein stability index of a GFP-peptide fusion (GPS, HEK-293T) (PSI 1-6); higher = more stable;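 note: 24-mer peptide tiles fused after GFP, lentivirally expressed, FACS-sorted into six equal bins by GFP/DsRed ratio, decoded by Illumina sequencing, PSI is the read-weighted mean bin number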
Details: treatment: MLN4924 1 uM, 8 h; c terminus: a fixed tail appended
Think of 3 as a floor: if protein stability index stands on it or above, it is satisfied; beneath it, not satisfied.

INSERT INTO results (residue_sequence, group) VALUES
  ('MCLFLQSLRQKQPERLCSGPGIVG [GMPPB]', 'not satisfied'),
  ('VPSKPPMSLEPQNGTYAGPAPAFQ [ANKRD40]', 'satisfied'),
  ('LQRWCRAKHMGLEPPPEVWQVLKT [POLD4]', 'not satisfied'),
  ('TGKWYELQDLQVTDILPQMITLSE [USP39]', 'not satisfied'),
  ('RNGQWSEPPKCLDPCVISQEIMEK [CFHR2]', 'satisfied'),
  ('FENPADAKNAAKDMNGKSLHGKAI [RBMY1A1]', 'satisfied'),
  ('TPSSYAPSHPPRPLLPLDMQGNQI [ZBTB22]', 'satisfied'),
  ('SHSKAPSGSQMSHNAVTSHQRPGW [NCF4]', 'satisfied'),
  ('QRLPRSAPPGSLVTKVTAVDADAG [PCDHGC5]', 'satisfied'),
  ('IIKKVAEVALDKGCSQFRLAVLDW [SAT2]', 'not satisfied'),
  ('VHYMIHEPEPHILLFRRPLPKKPK [CKS1B]', 'not satisfied'),
  ('LQSSKNSYSFQNPSSFDPSMLLQR [RNF180]', 'satisfied');
